- target: Phospholipid hydroperoxide glutathione peroxidase GPX4 (Homo sapiens)
- test_description: Primary qHTS Assay for Inhibitors of Recombinant Selenoprotein Glutathione Peroxidase 4 (GPX4) (AID 1845192); further: nearly all actives have a fitted effect of over 65% in size
- condition_info: recombinant GPX4, GR-coupled NADPH fluorescence, 15 min; series mostly up to 50 µM
Inconclusive results are not listed. Calls of active or inactive are those of the source. The call rests on the fitted dose curve; in most records, active means well fitted inhibition curve with a large enough effect; inconclusive means small, poorly fitted or top-dose-only effect; inactive means flat fitted curve, though single readings scatter.
Permitted responses: yes for active, no for inactive

Given COc1ccc(/C=C/C(=O)Nc2ccccc2C(=O)O)cc1OC , state the outcome it received in this test.
no

Given CN1[C@@H]2CC[C@H]1CC(OC(=O)C(CO)c1ccccc1)C2 (some centres undefined) , state the outcome it received in this test.
no

Given COc1ccc(/C=C2\COc3ccc(C)cc3C2=O)cc1O , state the outcome it received in this test.
no

Given NCCCCC(=O)O , state the outcome it received in this test.
no

Given CC(C(=O)O)c1ccc(C(=O)c2cccs2)cc1 (centres undefined) , state the outcome it received in this test.
no

Given O=C(NOCC1CC1)c1cc(Br)c(F)c(F)c1Nc1ccc(I)cc1Cl , state the outcome it received in this test.
no

Given CN1CC(=O)N/C1=N/C(=O)Nc1cccc(Cl)c1 , state the outcome it received in this test.
no

Given C[C@H](O)[C@H](O)[C@H]1CNc2nc(N)[nH]c(=O)c2N1 , state the outcome it received in this test.
yes

Given COc1cc(NC(C)CCCN)c2ncccc2c1 (centres undefined) , state the outcome it received in this test.
no

Given N.N.N.N.N.N.N.N.N.N.N.N.N.N.O.O.[Ru+4].[Ru+5].[Ru+5] , state the outcome it received in this test.
no

Given CC[C@H]1OC(=O)[C@H](C)C(O[C@H]2C[C@@](C)(OC)[C@@H](O)[C@H](C)O2)[C@H](C)[C@@H](OC2O[C@H](C)C[C@H](N(C)C)[C@H]2O)[C@](C)(O)C[C@@H](C)CN(C)[C@H](C)[C@@H](O)[C@]1(C)O (some centres undefined) , state the outcome it received in this test.
no

Given CN[C@H](CC(C)C)C(=O)N[C@H]1C(=O)N[C@@H](CC(N)=O)C(=O)N[C@H]2C(=O)N[C@H]3C(=O)N[C@H](C(=O)N[C@H](C(=O)O)c4cc(O)cc(O)c4-c4cc3ccc4O)[C@H](O)c3ccc(c(Cl)c3)Oc3cc2cc(c3O[C@@H]2O[C@H](CO)[C@@H](O)[C@H](O)[C@H]2O[C@H]2C[C@](C)(N)[C@H](O)[C@H](C)O2)Oc2ccc(cc2Cl)[C@H]1O , state the outcome it received in this test.
no

Given C=CC(N)CCC(=O)O (centres undefined) , state the outcome it received in this test.
no

Given [O-][n+]1ccccc1SSc1cccc[n+]1[O-] , state the outcome it received in this test.
no
